// provenance: PubChem BioAssay AID1963828

Tested on: 991263-137-R1-J2-PDC complex spheroid viability;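 also: spheroids exposed to compounds for 7 days before readout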
Experiment: Anticancer human tumor 991263-137-R1-J2-PDC patient-derived colon adenocarcinoma cell line growth inhibition [POLQ]
Settings: curve of first compound; second compound 10 µM
Quantity measured: IC50

Ask: What measured IC50 goes with CCCS(=O)(=O)Nc1ccc(F)c(C(=O)c2c[nH]c3ncc(-c4ccc(Cl)cc4)cc23)c1F + Cc1cccc(N(C)C(=O)C2C(O)CCN2c2nc(C)cc(C(F)(F)F)c2C#N)c1 ?
Result: > 10 µM

Ask: Next up: CC(=O)O[C@H]1C(=O)[C@@]2(C)[C@H]([C@H](OC(=O)c3ccccc3)[C@]3(O)C[C@H](OC(=O)[C@H](O)[C@@H](NC(=O)c4ccccc4)c4ccccc4)C(C)=C1C3(C)C)[C@]1(OC(C)=O)CO[C@@H]1C[C@@H]2O + COC1C(OC(N)=O)C(O)C(Oc2ccc3c(O)c(NC(=O)c4ccc(O)c(CC=C(C)C)c4)c(=O)oc3c2C)OC1(C)C
Result: 1.7 µM

Ask: Next up: COc1cc2cc(C(=O)CCC(=O)O)sc2cc1OC + COC1C(OC(N)=O)C(O)C(Oc2ccc3c(O)c(NC(=O)c4ccc(O)c(CC=C(C)C)c4)c(=O)oc3c2C)OC1(C)C
Result: > 10 µM

Ask: Next up: CNCc1ccc(-c2[nH]c3cc(F)cc4c3c2CCNC4=O)cc1 + Nc1ccc(C#CCN(C(=O)Cc2ncc(C(F)(F)F)cc2C(F)(F)F)c2ccc(F)cc2)nn1
Result: > 10 µM

Ask: Next up: O=C(Nc1ccc(O)c(NS(=O)(=O)c2ccc(F)cc2)c1)c1ccc(-c2ccccc2)cc1 + Nc1ccc(C#CCN(C(=O)Cc2ncc(C(F)(F)F)cc2C(F)(F)F)c2ccc(F)cc2)nn1
Result: > 10 µM
